B1: Ankyrin-1, residues 1405 to 1484; numbered along this chain, P16157 (parent)
chain: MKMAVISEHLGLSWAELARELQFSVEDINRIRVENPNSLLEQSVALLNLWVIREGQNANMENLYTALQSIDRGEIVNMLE

# Variants of: B1
# assay notes: abundance fitness (aPCA) (normalised: wild type 0, dead -1); higher = more abundant; growth selection in yeast, the domain comes from the species named
# applied conditions: Homo sapiens
Label satisfied when abundance fitness is at or above -0.3; anything below gets not satisfied.

mutant_designation=G55F label="not satisfied"
mutant_designation=E34C label=satisfied
mutant_designation=V25W label=satisfied
mutant_designation=S43V label="not satisfied"
mutant_designation=L79K label="not satisfied"
mutant_designation=R53N label="not satisfied"
mutant_designation=L40H label=satisfied
mutant_designation=R30D label=satisfied
mutant_designation=E41D label=satisfied
mutant_designation=L46D label="not satisfied"
